These measurements were taken from patent US20230118024A1.

- Tested target: T1, HLA-DQ2.5/alpha 1 gliadin peptide complex on Ba/F3 cells (human; wheat)
- T1 construct: also called Ba/F3-HLA-DQ2.5/alpha 1 gliadin peptide
- Procedure text: FACS
Entry flag: label 1 if FIG. 30 FACS value (IC17=0, DQN0139bb=100) reaches 90; label 0 if it does not.

>  <Binder>
DQN0282ff (antibody, human IgG1, kappa, V domains shown, also called DQN0282Hf; DQN0282Lf) VH: QSVEESGGRLVTPGTPLTLSCKASGFDFSIYYMSWVRQAPGKGLEWIGVINSGGGVTWYASWVKGRFTISKTSTTVDLKITSPTTEDTATYFCARLGDSNHYDLWGPGTLVTVSS VL: AYDMTQTPSSVSAAVGGTVTIKCQASETISSYLAWYQQKPGQRPQLLIYDASNLASGVPSRFKGSGSGTEFTLTISDLECADAATYYCQTHYYITSTTFGGGTKVEIKR

>  <Qualitative label>
label 0

$$$$
>  <Binder>
DQN0225dd (antibody, human IgG1, kappa, V domains shown, also called DQN0225Hd; DQN0225Ld) VH: QSLEESGGGLVKPGGTLTLTCTASGFSFSSAYYMCWVRQAPGKGLEWIACIYVGSGSTYYASWAQGRCTISKASSTTVTLQMTSLTAADTATYFCARDPLIYYYYGELNLWGPGTLVTVSS VL: AVVLTQTASPVSAPVGGTVTIKCQASEDISSNLAWYQQKPGQRPKVLIYSASTLASGVSSQFKGSGSGTQFTLTISDLECADAATYYCQSYYDISSVTFGGGTKVEIKR

>  <Qualitative label>
label 1

$$$$
>  <Binder>
DQN0334bb (antibody, human IgG1, kappa, V domains shown, also called DQN0334Hb; DQN0334Lb) VH: QQQLEESGGDLVQPEGSLTLTCKASGFDFSFNAMCWVRQAPGRGPEWIACIYNGNGSTYYASWAKGRFTISKTSSTSVTLQMTSLTAADTATYFCARGGYGLGYAGYGDVNYFNLWGPGTLVTVSS VL: AVVLTQTASPVSAPVGGTVTIKCQASEDIYFLLAWYRQKPGQPPKLLIYGASTLASGVPSRFKGSGSGTEYTLTISDLECADAATYYCQSYWYGDSGPNTFGGGTKVEIKR

>  <Qualitative label>
label 0

$$$$
>  <Binder>
DQN0324hh (antibody, human IgG1, kappa, V domains shown, also called DQN0324Lh) VH: QSLEESGGDLVKPGASLALTCTASGFSLINNYYMCWVRQAPGKGLEWIACIYAGLGGWTYYASWAKGRFTISKTSSTTVTLQMSSLTVADAATYFCARAATTYYHFNLWGPGTLVTVSS VL: AVVLTQTESPVSAAVGDTVTIKCQASQSIGNALAWYQQKPGQPPKLLIYDASTLASGVPSRFKGSGSGTQFTLTISDLECADAATYYCQSYDYGSSADTYTFGGGTKVEIKR

>  <Qualitative label>
label 0

$$$$
>  <Binder>
DQN0235ee (antibody, human IgG1, kappa, V domains shown, also called DQN0235He; DQN0235Le) VH: QQQLEESGGGLVKPGGTLTLTCKAGIDFSTYYYMCWVRQAPGKRPEWIACIFDGDGSTYYASWVNGRFTISKASSTTVTLRMTSLTAADTATYFCARSAGGSSSFGYFNLWGPGTLVTVSS VL: AYDMTQTPSSVSAAVGGTVTIKCQASQSISSSYLAWYHQKPGQSPKLLIYSASTLASGVPSRFKGSGSGTEFTLTISDLACADAATYYCQSYYYFSSNAWHTFGGGTKVEIKR

>  <Qualitative label>
label 0

$$$$
